Molecular target: T1, cynomolgus monkey IL-2Rα/CD25 subunit (cynomolgus monkey, UniProt H6WS54 22-213)
T1 construct: also called Cyno IL-2R subunit
T1 sequence: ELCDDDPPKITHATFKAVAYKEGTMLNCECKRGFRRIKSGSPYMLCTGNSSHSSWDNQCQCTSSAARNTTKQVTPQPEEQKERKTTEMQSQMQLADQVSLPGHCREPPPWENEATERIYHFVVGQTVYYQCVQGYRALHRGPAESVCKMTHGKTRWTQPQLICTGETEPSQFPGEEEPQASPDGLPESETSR
Assay: ELISA, bivalent; EC50 cyno vs human subunit
Description: Monospecific monovalent and bivalent IL-2Rα-, IL-2Rβ- and IL-2Rγ-specific antibodies that were selected on human IL-2R subunits, were evaluated for their cross-reactivity in an ELISA. Human and cynomolgus monkey receptor subunits (Acrobiosystems, KactusBiosystems) were coated at 1 μg/mL in PBS (pH 7.4) in a Maxisorp plate (Nunc) and incubated overnight at 4° C. […] Absorbance was measured at 450 nm with the reference wavelength of 620 nm using spectrophotometer. […]
measurement.type: Fold change (fold)

binder: 13-MP05E12 VHH-hFc, monospecific bivalent (Fc fusion, IgG1 Fc LALA-PG; not shown: human IgG1 CH2 and CH3 domains (Fc)) QVQLQESGGGLVQAGDSLRLSCAASGFNFGWHAMGWFRQAPGKEREFVATITWTGRDTYYADSVRGRFTISKDNAKDTLFLQMNSLRPDDTGVYYCAKARERATWAYSEDDCDYWGQGTQVTVSS
measurement.type: Fold change
result.value: 1
//
binder: 10-MP05F03 VHH-hFc, monospecific bivalent (Fc fusion, IgG1 Fc LALA-PG; also called anti-IL-2Rα Ab 10; anti-IL-2Rα VHH 10; not shown: human IgG1 CH2 and CH3 domains (Fc)) QVQLVESGGGLVQAGGSLRLSCAASGIPFDNYAMGWFRQAPGKEREFVAARDLEGIITRYGDSVKGRFTISRGNAKNTVFLQMNSLKPEDTAVYYCAARDGGVVAGSRSSAQYNYWGQGTQVTVSS
measurement.type: Fold change
result.value: 1
//
binder: 9-MP05G01 VHH-hFc, monospecific bivalent (Fc fusion, IgG1 Fc LALA-PG; not shown: human IgG1 CH2 and CH3 domains (Fc)) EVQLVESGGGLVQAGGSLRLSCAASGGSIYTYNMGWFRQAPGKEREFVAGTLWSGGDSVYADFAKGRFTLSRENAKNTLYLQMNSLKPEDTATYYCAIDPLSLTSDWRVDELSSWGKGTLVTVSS
measurement.type: Fold change
result.value: 1
